# pA2 per record follows
target: Melanocortin receptor 4 (Mus musculus, UniProt P56450); assay: Displacement of MTII from mouse MC4R expressed in HEK293 cells; format: cell-based; conditions: hek293
Sequence (P56450 whole entry): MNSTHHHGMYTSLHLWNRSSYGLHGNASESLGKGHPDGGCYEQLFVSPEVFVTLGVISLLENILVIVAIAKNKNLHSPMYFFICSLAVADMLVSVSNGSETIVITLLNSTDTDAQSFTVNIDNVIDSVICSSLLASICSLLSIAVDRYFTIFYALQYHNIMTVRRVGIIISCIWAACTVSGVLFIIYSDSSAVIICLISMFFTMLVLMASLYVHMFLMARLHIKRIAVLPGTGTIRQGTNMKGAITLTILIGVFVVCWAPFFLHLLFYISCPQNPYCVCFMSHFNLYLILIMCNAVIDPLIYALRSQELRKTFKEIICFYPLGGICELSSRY
Where a SMILES comes first, the peptide text is derived from it. [ ]: non-standard residue; d: D form. 1Nal = N[C@@H](Cc1cccc2ccccc12)C(=O)O
A bare number is all that is needed in reply.

Past entries and their recorded results:
Compound: C[C@@H]1NC(=O)[C@H](CC(N)=O)NC(=O)[C@H](Cc2ccccc2)NC(=O)[C@H](CCc2ccccc2)NC(=O)[C@H](CCCNC(=N)N)NC(=O)[C@@H]2CCCN2C(=O)[C@H]2CCCN2C(=O)[C@H](Cc2ccccc2)NC1=O
Reported Measurement: 7

Compound: C[C@@H]1NC(=O)[C@H](CC(N)=O)NC(=O)[C@H](Cc2cccc3ccccc23)NC(=O)[C@H](Cc2ccccc2)NC(=O)[C@H](CCCNC(=N)N)NC(=O)[C@@H]2CCCN2C(=O)[C@H]2CCCN2C(=O)[C@H](Cc2ccccc2)NC1=O
Reported Measurement: 7.8

Would you kindly share the measured pA2 for `C[C@@H]1NC(=O)[C@H](CC(N)=O)NC(=O)[C@H](Cc2ccc3ccccc3c2)NC(=O)[C@H](Cc2ccccc2)NC(=O)[C@H](CCCNC(=N)N)NC(=O)[C@@H]2CCCN2C(=O)[C@H]2CCCN2C(=O)[C@H](Cc2ccccc2)NC1=O` ?
7.2

Give the measured pA2 of `C[C@@H]1NC(=O)[C@H](CC(N)=O)NC(=O)[C@H](c2ccccc2)NC(=O)[C@H](Cc2ccccc2)NC(=O)[C@H](CCCNC(=N)N)NC(=O)[C@@H]2CCCN2C(=O)[C@H]2CCCN2C(=O)[C@H](Cc2ccccc2)NC1=O` .
5.9

Entry under review: C[C@@H]1NC(=O)[C@H](CC(N)=O)NC(=O)[C@H](Cc2ccccc2)NC(=O)[C@H](Cc2cccc3ccccc23)NC(=O)[C@H](CCCNC(=N)N)NC(=O)[C@@H]2CCCN2C(=O)[C@H]2CCCN2C(=O)[C@H](Cc2ccccc2)NC1=O (cyclo(R[1Nal]FNAF[dP]P)) . Reported pA2?
7.8

Returns the measured pA2 for the input compound. Input: `C[C@@H]1NC(=O)[C@H](CC(N)=O)NC(=O)[C@H](Cc2ccccc2)NC(=O)[C@H](Cc2ccc3ccccc3c2)NC(=O)[C@H](CCCNC(=N)N)NC(=O)[C@@H]2CCCN2C(=O)[C@H]2CCCN2C(=O)[C@H](Cc2ccccc2)NC1=O`
7

###

molecular target: Melanocyte-stimulating hormone receptor (Mus musculus, UniProt Q01727); assay: Agonist activity at mouse MC1R expressed in HEK293 cells by cAMP functional bioassay; assay type: cell-based; conditions: hek293
Sequence (Q01727 whole entry): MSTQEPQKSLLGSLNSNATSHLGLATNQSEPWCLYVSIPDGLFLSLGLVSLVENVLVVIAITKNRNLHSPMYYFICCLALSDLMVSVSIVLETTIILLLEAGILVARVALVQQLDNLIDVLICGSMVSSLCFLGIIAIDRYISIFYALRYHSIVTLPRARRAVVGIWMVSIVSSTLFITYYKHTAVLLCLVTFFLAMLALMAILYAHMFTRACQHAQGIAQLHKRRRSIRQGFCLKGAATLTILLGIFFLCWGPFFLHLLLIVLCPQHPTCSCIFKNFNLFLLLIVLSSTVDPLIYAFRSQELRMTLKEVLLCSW
The reader will find reported EC50 values listed item by item below.

Some solved entries appear below for comparison.
Test Smiles: C[C@@H]1NC(=O)[C@H](CC(N)=O)NC(=O)[C@H](Cc2ccccc2)NC(=O)[C@H](c2ccccc2)NC(=O)[C@H](CCCNC(=N)N)NC(=O)[C@@H]2CCCN2C(=O)[C@H]2CCCN2C(=O)[C@H](Cc2ccccc2)NC1=O
EC50: 13.6 µM
//
Test Smiles: C[C@@H]1NC(=O)[C@H](CC(N)=O)NC(=O)[C@@H]2Cc3ccccc3CN2C(=O)[C@H](Cc2ccccc2)NC(=O)[C@H](CCCNC(=N)N)NC(=O)[C@@H]2CCCN2C(=O)[C@H]2CCCN2C(=O)[C@H](Cc2ccccc2)NC1=O
EC50: 3.9 µM
//
Test Smiles: C[C@@H]1NC(=O)[C@H](CC(N)=O)NC(=O)[C@H](Cc2ccc3ccccc3c2)NC(=O)[C@H](Cc2ccccc2)NC(=O)[C@H](CCCNC(=N)N)NC(=O)[C@@H]2CCCN2C(=O)[C@H]2CCCN2C(=O)[C@H](Cc2ccccc2)NC1=O
EC50: 19.6 µM

Let us examine a further case.
API: value(readout=EC50, system=Melanocyte-stimulating hormone receptor (Mus musculus, UniProt Q01727)) for record `C[C@@H]1NC(=O)[C@H](CC(N)=O)NC(=O)[C@H](Cc2ccccc2)NC(=O)[C@H](CCc2ccccc2)NC(=O)[C@H](CCCNC(=N)N)NC(=O)[C@@H]2CCCN2C(=O)[C@H]2CCCN2C(=O)[C@H](Cc2ccccc2)NC1=O`
1.5 µM

###

Kb reference
target: Melanocortin receptor 3 (Mus musculus, UniProt P33033); experiment: Displacement of MTII from mouse MC3R expressed in HEK293 cells; format: cell-based; details: read-out: pA2 (converted)
Sequence (P33033 whole entry): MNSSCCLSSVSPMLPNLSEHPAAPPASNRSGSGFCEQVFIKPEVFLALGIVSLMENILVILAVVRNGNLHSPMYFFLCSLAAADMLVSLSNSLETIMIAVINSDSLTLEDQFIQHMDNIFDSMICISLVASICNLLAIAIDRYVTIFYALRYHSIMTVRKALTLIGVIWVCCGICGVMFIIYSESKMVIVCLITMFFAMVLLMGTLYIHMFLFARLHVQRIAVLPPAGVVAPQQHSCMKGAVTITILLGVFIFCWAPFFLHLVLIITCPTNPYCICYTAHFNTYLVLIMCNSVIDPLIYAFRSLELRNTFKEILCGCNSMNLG

Compound: C[C@@H]1NC(=O)[C@H](CCCCN)NC(=O)[C@H](Cc2ccccc2)NC(=O)[C@H](Cc2ccccc2)NC(=O)[C@H](CCCNC(=N)N)NC(=O)[C@@H]2CCCN2C(=O)[C@H]2CCCN2C(=O)[C@H](Cc2ccccc2)NC1=O
Kb: 0.1 µM

What value of Kb has been reported for the following compound? C[C@@H]1NC(=O)C(CCCN)NC(=O)[C@H](Cc2ccccc2)NC(=O)[C@H](Cc2ccccc2)NC(=O)[C@H](CCCNC(=N)N)NC(=O)[C@@H]2CCCN2C(=O)[C@H]2CCCN2C(=O)[C@H](Cc2ccccc2)NC1=O (some centres not stated)
0.158 µM
